- Tested on: zebrafish embryos
- assay_explanation: Manually assessed pericardial edema in treated zebrafish
- Format: in vivo
- experimental_conditions: number of fish, 20 µM, Tg(myl7:eGFP)
Counter-ions that a name gives are not always drawn.
Entries annotated with measured Edema: Severe
Output: the number by itself.

Examples with answers:
N=C(N)c1ccc(OCCCCCOc2ccc(C(=N)N)cc2)cc1 [Pentamidine isethionate] : 0
CN(C)CCCOc1nn(Cc2ccccc2)c2ccccc12 [Benzydamine HCl] : 0
CN(C)CCN(Cc1ccc(Cl)cc1)c1ccccn1 [Chloropyramine HCl, chloropyramine HCl] : 0

Considering C=CCOC(Cn1ccnc1)c1ccc(Cl)cc1Cl (centres unmarked) [Enilconazole, enilconazole] , its Edema: Severe with zebrafish embryos was recorded as 0

Considering CN(C)CCN(Cc1cccs1)c1ccccn1 [Methapyrilene HCl, methapyrilene HCl] , its Edema: Severe with zebrafish embryos was recorded as 1

----------
- Tested on: Tg(myl7:eGFP)^twu34/+ zebrafish embryos
- assay_explanation: Chamber-specific quantitative heart phenotyping with pyHeart4Fish
- experimental_conditions: 20 µM, vs DMSO controls
Counter-ions that a name gives are not always drawn.
readout_label: Effect on heart rate

CN(C)CCN(Cc1cccs1)c1ccccn1 [Methapyrilene HCl, methapyrilene HCl] : decreased HR
CN(C)CCN(Cc1ccccc1)c1ccccn1 [Tripelennamine HCl, tripelennamine HCl] : decreased HR
CN(C)CCN(Cc1ccc(Cl)cc1)c1ccccn1 [Chloropyramine HCl, chloropyramine HCl] : decreased HR

----------
- Tested on: zebrafish embryos
- assay_explanation: Manually assessed pericardial edema in treated zebrafish
- Format: in vivo
- experimental_conditions: number of fish, 20 µM, Tg(myl7:eGFP)
Structures can show the parent of a compound that is named as a salt.
Entries annotated with measured Edema: Moderate
Output: the number by itself.

Examples with answers:
CNCC[C@@H](Oc1cccc2ccccc12)c1cccs1 [(R)-Duloxetine HCl] : 3
C[C@@H]1C[C@@H]([C@H](O)CC2CC(=O)NC(=O)C2)C(=O)[C@@H](C)C1 [Cycloheximide] : 3
Oc1ccc(OCc2ccccc2)cc1 : 2
CN(C)CCN(Cc1cccs1)c1ccccn1 [Methapyrilene HCl, methapyrilene HCl] : 2
N=C(N)c1ccc(OCCCCCOc2ccc(C(=N)N)cc2)cc1 [Pentamidine isethionate] : 0
Cc1cc(/C=C/c2ccc3cc(N(C)C)ccc3[n+]2C)c(C)n1-c1ccccc1 [Pyrvinium pamoate] : 0

The reported value for CN(C)CCN(Cc1ccccc1)c1ccccn1 [Tripelennamine HCl, tripelennamine HCl] in terms of Edema: Moderate is 5

The reported value for CN(C)CCN(Cc1ccc(Cl)cc1)c1ccccn1 [Chloropyramine HCl, chloropyramine HCl] in terms of Edema: Moderate is 7

----------
Entries annotated with measured Arrhythmia
- System: Tg(myl7:eGFP)^twu34/+ zebrafish embryos
- assay_explanation: Chamber-specific quantitative heart phenotyping with pyHeart4Fish
- experimental_conditions: number of fish, 20 µM
Structures can show the parent of a compound that is named as a salt.
Output: the number by itself.

Examples with answers:
CN(C)CCN(Cc1cccs1)c1ccccn1 [Methapyrilene HCl, methapyrilene HCl] : 2
CN(C)CCN(Cc1ccccc1)c1ccccn1 [Tripelennamine HCl, tripelennamine HCl] : 0

The reported value for CN(C)CCCOc1nn(Cc2ccccc2)c2ccccc12 [Benzydamine HCl] in terms of Arrhythmia is 1

The reported value for Oc1ccc(OCc2ccccc2)cc1 [Monobenzone] in terms of Arrhythmia is 3

The reported value for OCCN1CCN(CCCN2c3ccccc3C=Cc3ccccc32)CC1 [Opipramol diHCl] in terms of Arrhythmia is 1

The reported value for N=C(N)c1ccc(OCCCCCOc2ccc(C(=N)N)cc2)cc1 [Pentamidine isethionate] in terms of Arrhythmia is 1

The reported value for CCC(Cc1c(I)cc(I)c(N)c1I)C(=O)O (centres unmarked) [Iopanoic acid] in terms of Arrhythmia is 0

The reported value for C=CCOC(Cn1ccnc1)c1ccc(Cl)cc1Cl (centres unmarked) [Enilconazole, enilconazole] in terms of Arrhythmia is 1

The reported value for CNCC[C@@H](Oc1cccc2ccccc12)c1cccs1 [(R)-Duloxetine HCl] in terms of Arrhythmia is 0

The reported value for CC(=O)[C@H]1CC[C@H]2[C@@H]3CC=C4C[C@@H](O)CC[C@]4(C)[C@H]3CC[C@]12C [Pregnenolone] in terms of Arrhythmia is 1

The reported value for CC(C)c1c(C(=O)Nc2ccccc2)c(-c2ccccc2)c(-c2ccc(F)cc2)n1CC[C@@H](O)C[C@@H](O)CC(=O)O [Atorvastatin, atorvastatin] in terms of Arrhythmia is 11

----------
- Tested on: zebrafish embryos
- assay_explanation: Manually assessed pericardial edema in treated zebrafish
- Type: in vivo
- experimental_conditions: number of fish, 20 µM, Tg(myl7:eGFP)
Structures can show the parent of a compound that is named as a salt.
readout_label: Edema: No edema

N=C(N)c1ccc(OCCCCCOc2ccc(C(=N)N)cc2)cc1 [Pentamidine isethionate] : 4
CN(C)CCN(Cc1ccc(Cl)cc1)c1ccccn1 [Chloropyramine HCl, chloropyramine HCl] : 0
C=CCOC(Cn1ccnc1)c1ccc(Cl)cc1Cl (centres unmarked) : 3

The reported value for C[C@@H]1C[C@@H]([C@H](O)CC2CC(=O)NC(=O)C2)C(=O)[C@@H](C)C1 [Cycloheximide] in terms of Edema: No edema is 1

The reported value for OCCN1CCN(CCCN2c3ccccc3C=Cc3ccccc32)CC1 [Opipramol diHCl] in terms of Edema: No edema is 0

The reported value for CNCC[C@@H](Oc1cccc2ccccc12)c1cccs1 [(R)-Duloxetine HCl] in terms of Edema: No edema is 0

The reported value for CN(C)CCCOc1nn(Cc2ccccc2)c2ccccc12 [Benzydamine HCl] in terms of Edema: No edema is 2

The reported value for Cc1cc(/C=C/c2ccc3cc(N(C)C)ccc3[n+]2C)c(C)n1-c1ccccc1 [Pyrvinium pamoate] in terms of Edema: No edema is 4

The reported value for CN(C)CCN(Cc1ccccc1)c1ccccn1 [Tripelennamine HCl, tripelennamine HCl] in terms of Edema: No edema is 2

The reported value for CN(C)CCN(Cc1cccs1)c1ccccn1 [Methapyrilene HCl, methapyrilene HCl] in terms of Edema: No edema is 1

The reported value for `CC(=O)[C@H]1CC[C@H]2[C@@H]3CC=C4C[C@@H](O)CC[C@]4(C)[C@H]3CC[C@]12C` in terms of Edema: No edema is 0

The reported value for `CC(C)c1c(C(=O)Nc2ccccc2)c(-c2ccccc2)c(-c2ccc(F)cc2)n1CC[C@@H](O)C[C@@H](O)CC(=O)O` in terms of Edema: No edema is 5

The reported value for CCC(Cc1c(I)cc(I)c(N)c1I)C(=O)O (centres unmarked) in terms of Edema: No edema is 1

The reported value for `Oc1ccc(OCc2ccccc2)cc1` in terms of Edema: No edema is 3

----------
- Tested on: Tg(myl7:eGFP)^twu34/+ zebrafish embryos
- assay_explanation: Chamber-specific quantitative heart phenotyping with pyHeart4Fish
- experimental_conditions: 20 µM, vs DMSO controls
Structures can show the parent of a compound that is named as a salt.
readout_label: Effect on heart function / morphology: contractility, conduction, arrhythmia, HS, EF

CN(C)CCCOc1nn(Cc2ccccc2)c2ccccc12 [Benzydamine HCl] : do not induce arrhythmia
OCCN1CCN(CCCN2c3ccccc3C=Cc3ccccc32)CC1 [Opipramol diHCl] : do not induce arrhythmia

----------
Entries annotated with measured Edema: Mild
- System: zebrafish embryos
- assay_explanation: Manually assessed pericardial edema in treated zebrafish
- Assay type: in vivo
- experimental_conditions: number of fish, 20 µM, Tg(myl7:eGFP)
Structures can show the parent of a compound that is named as a salt.

Examples with answers:
CCC(Cc1c(I)cc(I)c(N)c1I)C(=O)O (stereo not drawn) : 2
CN(C)CCCOc1nn(Cc2ccccc2)c2ccccc12 [Benzydamine HCl] : 2
C[C@@H]1C[C@@H]([C@H](O)CC2CC(=O)NC(=O)C2)C(=O)[C@@H](C)C1 [Cycloheximide] : 0

The reported value for `CC(C)c1c(C(=O)Nc2ccccc2)c(-c2ccccc2)c(-c2ccc(F)cc2)n1CC[C@@H](O)C[C@@H](O)CC(=O)O` in terms of Edema: Mild is 5

The reported value for CN(C)CCN(Cc1ccc(Cl)cc1)c1ccccn1 [Chloropyramine HCl, chloropyramine HCl] in terms of Edema: Mild is 4

The reported value for CN(C)CCN(Cc1ccccc1)c1ccccn1 [Tripelennamine HCl, tripelennamine HCl] in terms of Edema: Mild is 4

----------
Entries annotated with measured Arrhythmia
- Tested on: Tg(myl7:eGFP)^twu34/+ zebrafish embryos
- assay_explanation: Chamber-specific quantitative heart phenotyping with pyHeart4Fish;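 further: embryos exposed 24 h from 24 hpf in 0.2% DMSO egg water, tricaine-anaesthetised, heartbeat videos imaged at 470 nm and hearts analysed chamber by chamber from pixel-intensity beat curves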
- experimental_conditions: number of fish, 20 µM
Structures can show the parent of a compound that is named as a salt.
Output: the number by itself.

CN(C)CCN(Cc1ccc(Cl)cc1)c1ccccn1 [Chloropyramine HCl, chloropyramine HCl] : 0
Cc1cc(/C=C/c2ccc3cc(N(C)C)ccc3[n+]2C)c(C)n1-c1ccccc1 [Pyrvinium pamoate] : 1

Next:
The reported value for C[C@@H]1C[C@@H]([C@H](O)CC2CC(=O)NC(=O)C2)C(=O)[C@@H](C)C1 [Cycloheximide] in terms of Arrhythmia is 3

Attribution: paper PMC10126419
